- System: HeLa Kyoto;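 further: HeLa Kyoto cells arrested at G1/S by double thymidine block, proteins quantified by TMT10plex mass spectrometry in mild NP-40 versus SDS extracts, three biological replicates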
- ASSAY: solubility in G1/S (NP-40 vs SDS abundance) (log2 ratio); higher = more soluble
- CONDITION PARAMETERS: cell cycle stage: G1/S
Assignment: determine reported solubility in G1/S (log2) for the given sequences.
One number for each entry.

MACROMOLECULE SEQUENCE	solubility in G1/S (log2)
MEEASEGGGNDRVRNLQSEVEGVKNIMTQNVERILARGENLEHLRNKTEDLEATSEHFKTTSQKVARKFWWKNVKMIVLICVIVFIIILFIVLFATGAFS [VAMP8]	-0.136

For each of the sequences below, state solubility in G1/S (log2).
1. MPRPGSAQRWAAVAGRWGCRLLALLLLVPGPGGASEITFELPDNAKQCFYEDIAQGTKCTLEFQVITGGHYDVDCRLEDPDGKVLYKEMKKQYDSFTFTASKNGTYKFCFSNEFSTFTHKTVYFDFQVGEDPPLFPSENRVSALTQMESACVSIHEALKSVIDYQTHFRLREAQGRSRAEDLNTRVAYWSVGEALILLVVSIGQVFLLKSFFSDKRTTTTRVGS [TMED7]
2. MGIWQRLLLFGGVSLRAGGGATAPLGGSRAMVCGRQLSGAGSETLKQRRTQIMSRGLPKQKPIEGVKQVIVVASGKGGVGKSTTAVNLALALAANDSSKAIGLLDVDVYGPSVPKMMNLKGNPELSQSNLMRPLLNYGIACMSMGFLVEESEPVVWRGLMVMSAIEKLLRQVDWGQLDYLVVDMPPGTGDVQLSVSQNIPITGAVIVSTPQDIALMDAHKGAEMFRRVHVPVLGLVQNMSVFQCPKCKHKTHIFGADGARKLAQTLGLEVLGDIPLHLNIREASDTGQPIVFSQPESDEAKAYLRIAVEVVRRLPSPSE [NUBPL]

-0.0739
0.45

For each of the sequences below, state solubility in G1/S (log2).
1. MANNDAVLKRLEQKGAEADQIIEYLKQQVSLLKEKAILQATLREEKKLRVENAKLKKEIEELKQELIQAEIQNGVKQIPFPSGTPLHANSMVSENVIQSTAVTTVSSGTKEQIKGGTGDEKKAKEKIEKKGEKKEKKQQSIAGSADSKPIDVSRLDLRIGCIITARKHPDADSLYVEEVDVGEIAPRTVVSGLVNHVPLEQMQNRMVILLCNLKPAKMRGVLSQAMVMCASSPEKIEILAPPNGSVPGDRITFDAFPGEPDKELNPKKKIWEQIQPDLHTNDECVATYKGVPFEVKGKGVCRAQTMSNSGIK [AIMP1]
2. MSALLRLLRTGAPAAACLRLGTSAGTGSRRAMALYHTEERGQPCSQNYRLFFKNVTGHYISPFHDIPLKVNSKEENGIPMKKARNDEYENLFNMIVEIPRWTNAKMEIATKEPMNPIKQYVKDGKLRYVANIFPYKGYIWNYGTLPQTWEDPHEKDKSTNCFGDNDPIDVCEIGSKILSCGEVIHVKILGILALIDEGETDWKLIAINANDPEASKFHDIDDVKKFKPGYLEATLNWFRLYKVPDGKPENQFAFNGEFKNKAFALEVIKSTHQCWKALLMKKCNGGAINCTNVQISDSPFRCTQEEARSLVESVSSSPNKESNEEEQVWHFLGK [PPA2]
3. MDPVVLSYMDSLLRQSDVSLLDPPSWLNDHIIGFAFEYFANSQFHDCSDHVSFISPEVTQFIKCTSNPAEIAMFLEPLDLPNKRVVFLAINDNSNQAAGGTHWSLLVYLQDKNSFFHYDSHSRSNSVHAKQVAEKLEAFLGRKGDKLAFVEEKAPAQQNSYDCGMYVICNTEALCQNFFRQQTESLLQLLTPAYITKKRGEWKDLITTLAKK [SENP8]
4. MNGRADFREPNAEVPRPIPHIGPDYIPTEEERRVFAECNDESFWFRSVPLAATSMLITQGLISKGILSSHPKYGSIPKLILACIMGYFAGKLSYVKTCQEKFKKLENSPLGEALRSGQARRSSPPGHYYQKSKYDSSVSGQSSFVTSPAADNIEMLPHYEPIPFSSSMNESAPTGITDHIVQGPDPNLEESPKRKNITYEELRNKNRESYEVSLTQKTDPSVRPMHERVPKKEVKVNKYGDTWDE [OCIAD1]

[0.468, 0.442, 0.62, 0.219]
